Source: ChEMBL document CHEMBL3091402

TEST_DETAILS: Ratio of drug level in brain to blood in rat at 3 mg/kg, po
Format: ADME, organism-based
Design: dose 3 mg/kg, route oral

STRUCTURE_SMILES_STRING	Kp
CC(=O)Nc1ccc(Oc2ccc3c(c2)CCN(C2CCC2)CC3)nc1	0.8
O=C1CCCN1c1ccc(Oc2ccc3c(c2)CCN(C2CCC2)CC3)nc1	1
CNC(=O)c1ccc(Oc2ccc3c(c2)CCN(C2CCC2)CC3)nn1	2.8
O=C1CCCN1c1ccc(Oc2ccc3c(c2)CCN(C2CCCC2)CC3)nc1	1
CNC(=O)c1ccc(Oc2ccc3c(c2)CCN(C2CCC2)CC3)cc1	2.5
Cc1nnc(-c2ccc(Oc3ccc4c(c3)CCN(C3CCC3)CC4)nc2)o1	2.8
CNC(=O)c1ccc(Oc2ccc3c(c2)CCN(C2CCC2)CC3)cn1	3.4
